tested_system: 3-oxo-5-alpha-steroid 4-dehydrogenase 1 (Homo sapiens, UniProt P18405)
Sequence (P18405 whole entry): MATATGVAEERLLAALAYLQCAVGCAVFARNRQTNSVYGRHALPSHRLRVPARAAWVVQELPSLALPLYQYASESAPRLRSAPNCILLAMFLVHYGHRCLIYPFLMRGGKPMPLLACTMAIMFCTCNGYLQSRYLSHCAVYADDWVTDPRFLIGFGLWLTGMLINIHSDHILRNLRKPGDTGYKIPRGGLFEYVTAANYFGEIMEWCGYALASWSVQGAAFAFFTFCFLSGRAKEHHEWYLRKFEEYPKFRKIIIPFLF
protocol_description: Inhibition of [1-beta-3H]-androstenedione binding to human steroid 5-alpha-reductase type I expressed in DU-145 cells at 10 uM
pIC50: −log10 of the molar value.
readout_type: pIC50

C[C@]12CCC(=O)C=C1CCC1C2CC[C@]2(C)C(n3cnc4ccccc43)=CCC12 (stereo partly specified)	6.11

====

protocol_description: […] at 50 mg/kg upon subcutaneous administration was determined in mouse; n = 5
Format: ADME, organism-based
Design: dose 50 mg/kg, route subcutaneous
assay_context: in vivo, sc
The reader will find reported MRT values listed item by item below.
readout_type: MRT (h)

C[C@]12CC[C@H](O)CC1=CCC1C2CC[C@]2(C)C(n3cnc4ccccc43)=CCC12 (some centres not stated)	1.09
C[C@]12CCC(=O)C=C1CCC1C2CC[C@]2(C)C(n3cnc4ccccc43)=CCC12 (some centres not stated)	1.33
